System: LC-2-ad;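 further: growth inhibition of human LC-2-ad cells, read out with a cell viability assay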
EXPERIMENT_DESCRIPTION: cells
Type: functional, cell-based, Homo sapiens
STUDY_CONDITIONS: Homo sapiens, LC-2-ad
Description: SANGER: Inhibition of human LC-2-ad cell growth in a cell viability assay.
Provide the recorded pIC50 for the entries that follow.
Answers are plain numbers, as −log10 of the molar value.

COMPOUND	VAL
COc1cc([C@@H]2c3cc4c(cc3[C@@H](O[C@@H]3O[C@@H]5CO[C@@H](C)O[C@H]5[C@H](O)[C@H]3O)[C@H]3COC(=O)[C@H]23)OCO4)cc(OC)c1O [ETOPOSIDE]	5.69

Input line: Find the recorded pIC50 belonging to C=CCNC1=C2C[C@@H](C)C[C@H](OC)[C@H](O)[C@@H](C)/C=C(\C)[C@H](OC(N)=O)[C@@H](OC)/C=C\C=C(/C)C(=O)NC(=CC1=O)C2=O and report it.
Output line: 6.85

###

Would you kindly list pIC50 for each of these compounds?
System: COLO-678
EXPERIMENT_DESCRIPTION: cells
Format: functional, cell-based, Homo sapiens
STUDY_CONDITIONS: Homo sapiens, COLO-678
Description: SANGER: Inhibition of human COLO-678 cell growth in a cell viability assay.
pIC50: −log10 of the molar value.

COMPOUND	MEASUREMENT_TARGET	pIC50
O=C(c1cc(Cc2n[nH]c(=O)c3ccccc23)ccc1F)N1CCN(C(=O)C2CC2)CC1	COLO-678	< 5.30
C[C@]1(O)C[C@@H](c2nc(-c3ccc4ccc(-c5ccccc5)nc4c3)c3c(N)nccn32)C1	COLO-678	< 5.59
COc1cc([C@@H]2c3cc4c(cc3[C@@H](O[C@@H]3O[C@@H]5CO[C@@H](C)O[C@H]5[C@H](O)[C@H]3O)[C@H]3COC(=O)[C@H]23)OCO4)cc(OC)c1O [ETOPOSIDE]	COLO-678	< 4.80
CN(Cc1cnc2nc(N)nc(N)c2n1)c1ccc(C(=O)N[C@@H](CCC(=O)O)C(=O)O)cc1 [METHOTREXATE]	COLO-678	< 6.70
Cc1cnc(-c2cnc(NCCNc3ccc(C#N)cn3)nc2-c2ccc(Cl)cc2Cl)[nH]1	COLO-678	< 5.59

For each listed entry, give its pIC50.
1. CC(=O)O[C@@H]1[C@@H](OC(C)=O)[C@@H](O)[C@H](Oc2c(-c3ccc(O)cc3)oc3cc(O)cc(O)c3c2=O)O[C@H]1C
2. COc1ccc(-c2ccc3c(N4CCOC[C@@H]4C)nc(N4CCOC[C@@H]4C)nc3n2)cc1CO
3. O=c1cc(-c2cccc3c2Sc2ccccc2S3)oc(N2CCOCC2)c1
4. Cn1cncc1[C@@](N)(c1ccc(Cl)cc1)c1ccc2c(c1)c(-c1cccc(Cl)c1)cc(=O)n2C
5. Nc1ccn([C@@H]2O[C@H](CO)[C@@H](O)[C@@H]2O)c(=O)n1

Output line:
["< 5.00", "< 5.70", "< 5.00", "< 4.80", "< 5.70"]

I would be grateful if you could provide pIC50 for each of the following entries.
1. CN(C)C/C=C/C(=O)Nc1cc2c(Nc3ccc(F)c(Cl)c3)ncnc2cc1O[C@H]1CCOC1
2. CCC1=C[C@@H]2CN(C1)Cc1c([nH]c3ccccc13)[C@@](C(=O)OC)(c1cc3c(cc1OC)N(C)[C@H]1[C@@](O)(C(=O)OC)[C@H](OC(C)=O)[C@]4(CC)C=CCN5CC[C@]31[C@@H]54)C2
3. COc1ccc(C2=N[C@@H](c3ccc(Cl)cc3)[C@@H](c3ccc(Cl)cc3)N2C(=O)N2CCNC(=O)C2)c(OC(C)C)c1
4. Cc1ccc(Nc2nccc(N(C)c3ccc4c(C)n(C)nc4c3)n2)cc1S(N)(=O)=O

Output line:
["< 6.30", "< 7.19", "< 5.10", "< 5.10"]

All figures here come from ChEMBL document CHEMBL1201861.
